pIC50: −log10 of the molar value.
Recorded pIC50 values (cGMP-specific 3',5'-cyclic phosphodiesterase (Homo sapiens, UniProt O76074)) are given below.

- MOLECULE: "CCc1cc(C(C)=O)c(O)cc1OCc1cccc(C(=O)Nc2nn[nH]n2)n1"
  pIC50: 5.29
- MOLECULE: "O=C(Cc1csc(NC(=O)c2cnc3ccccc3n2)n1)NO"
  pIC50: 5.74
- MOLECULE: "CCCCCCC(C(=O)O)c1csc(NC(=O)c2cccc(COc3ccccc3)n2)n1 (configuration not stated)"
  pIC50: 5.34
- MOLECULE: "O=C(Cc1csc(NC(=O)CCC(=O)c2ccccc2)n1)NO"
  pIC50: 5.34
- MOLECULE: "CCc1cc(C(C)=O)c(O)cc1OCc1cccc(C(=O)Nc2nc(CC(=O)O)cs2)c1"
  pIC50: 6.20
- MOLECULE: "O=C(Cc1csc(NC(=O)c2cccc(SC(F)(F)F)c2)n1)NO"
  pIC50: 6.37
- MOLECULE: "CCc1cc(C(C)=O)c(O)cc1OCc1cccc(C(=O)N(CC)CCCCCCCCC(N)=O)n1"
  pIC50: 5.92
- MOLECULE: "CCCCCCC(C(=O)NO)c1csc(NC(=O)c2cccc(COc3ccccc3)n2)n1 (configuration not stated)"
  pIC50: 6.64
- MOLECULE: "O=C(Nc1nc(C(Cc2ccccc2)C(=O)O)cs1)c1cccc(COc2ccccc2)n1 (configuration not stated)"
  pIC50: 5.00
- MOLECULE: "O=C(Nc1nc(C2(C(=O)O)CC2)cs1)c1cccc(COc2ccccc2)n1"
  pIC50: 5.07
- MOLECULE: "Cc1cc(C)cc(C(=O)Nc2nc(CC(=O)NO)cs2)c1"
  pIC50: 5.74
- MOLECULE: "CCC(=O)OCC(NC(=O)c1cccc(COc2cc(O)c(C(C)=O)cc2CC)n1)C(=O)O (configuration not stated)"
  pIC50: 5.18
- MOLECULE: "CC(C)(C(=O)NO)c1csc(NC(=O)c2cccc(COc3ccccc3)n2)n1"
  pIC50: 6.28
- MOLECULE: "O=C(Cc1csc(NC(=O)c2cccc(C(=O)c3ccccc3)c2)n1)NO"
  pIC50: 5.47
- MOLECULE: "CCc1cc(C(C)=O)c(O)cc1OCc1cccc(C(=O)NC(C(=O)OC)C(C)O)n1 (configuration not stated)"
  pIC50: 5.47
- MOLECULE: "O=C(Cc1csc(NC(=O)c2ccccc2F)n1)NO"
  pIC50: 5.12
- MOLECULE: "O=C(Nc1nc(C2(C(=O)O)CCOCC2)cs1)c1cccc(COc2ccccc2)n1"
  pIC50: 5.00
- MOLECULE: "CCOC(=O)CC(NC(=O)c1cccc(COc2cc(O)c(C(C)=O)cc2CC)c1)C(=O)OCC (configuration not stated)"
  pIC50: 6.19
- MOLECULE: "CCc1cc(C(C)=O)c(O)cc1OCc1cccc(C(=O)NC(Cc2cnc[nH]2)C(=O)OC)n1 (configuration not stated)"
  pIC50: 5.04
- MOLECULE: "CCc1cc(C(C)=O)c(O)cc1OCc1cccc(C(=O)NC(CO)(CO)CO)n1"
  pIC50: 5.05
- MOLECULE: "CCCCCCCCCCCC(=O)Nc1nc(CC(=O)NO)cs1"
  pIC50: 5.74
- MOLECULE: "CCc1cc(C(C)=O)c(O)cc1OCc1cccc(C(=O)Nc2nc(CC(=O)NO)cs2)n1"
  pIC50: 7.59
- MOLECULE: "C=CCN(CCC(=O)O)C(=O)c1cccc(COc2cc(O)c(C(C)=O)cc2CC)n1"
  pIC50: 6.06
- MOLECULE: "O=C(Cc1csc(NC(=O)COc2ccccc2)n1)NO"
  pIC50: 5.25
- MOLECULE: "CCc1cc(C(C)=O)c(O)cc1OCc1cccc(C(=O)NCCCCCC(=O)O)n1"
  pIC50: 5.12
- MOLECULE: "COc1cc(OC)c(OC)c(C(=O)Nc2nc(CC(=O)NO)cs2)c1"
  pIC50: 5.59
- MOLECULE: "COc1ccc(NC(=O)c2cccc(COc3ccccc3)n2)cc1C(=O)NO"
  pIC50: 5.46
- MOLECULE: "O=C(Cc1csc(NC(=O)CCCCCc2ccccc2)n1)NO"
  pIC50: 5.72
- MOLECULE: "COc1ccc2c(c1)OC(=O)CC2CC(=O)Nc1nc(CC(=O)NO)cs1 (configuration not stated)"
  pIC50: 5.22
- MOLECULE: "O=C(NO)C(=O)c1csc(NC(=O)c2cccc(COc3ccccc3)n2)n1"
  pIC50: 5.66
- MOLECULE: "O=C(Cc1csc(NC(=O)Nc2cccc3ccccc23)n1)NO"
  pIC50: 5.42
- MOLECULE: "CCc1cc(C(C)=O)c(O)cc1OCc1cccc(C(=O)NC(CO)CCC(=O)OC)n1 (configuration not stated)"
  pIC50: 5.58
